# EXPERIMENT_NOTES: Selectivity index, ratio of IC50 for human KB3-1 cells to IC50 for bFGF-treated HUVEC
# Set-up: species or system KB 3-1
Quick rule for you: Ratio IC50 at 30 or higher means y, lower means n.

- STRUCTURE_SMILES_STRING: "O=C1NCCc2ccc(c(Br)c2)Oc2cc(cc(Br)c2O)CCNC(=O)/C(=N/O)Cc2cc(Br)c(O)c(c2)Oc2c(Br)cc(cc2Br)C/C1=N\\O"
  ANSWER_LABEL: "n"
- STRUCTURE_SMILES_STRING: "O=C1NCCc2cc(Br)c(O)c(c2)Oc2ccc(cc2Br)CCNC(=O)/C(=N\\O)Cc2cc(Br)c(O)c(c2)Oc2c(Br)cc(cc2Br)C/C1=N/O"
  ANSWER_LABEL: "y"
- STRUCTURE_SMILES_STRING: "Nc1cc2cc(c1O)Oc1c(Br)cc(cc1Br)CCNC(=O)/C(=N/O)Cc1cc(N)c(O)c(c1)Oc1c(Br)cc(cc1Br)C/C(=N/O)C(=O)NCC2"
  ANSWER_LABEL: "n"
- STRUCTURE_SMILES_STRING: "O=C1N/C=C/c2ccc(c(Br)c2)Oc2cc(ccc2O)CCNC(=O)/C(=N/O)Cc2cc(Br)c(c(Br)c2)Oc2cc(cc(Br)c2O)C/C1=N\\O"
  ANSWER_LABEL: "y"
- STRUCTURE_SMILES_STRING: "N[C@@H]1Cc2cc(Br)c(c(Br)c2)Oc2cc(ccc2O)C[C@H](N)C(=O)NCCc2cc(Br)c(c(Br)c2)Oc2cc(cc(Br)c2O)CCNC1=O"
  ANSWER_LABEL: "n"
- STRUCTURE_SMILES_STRING: "O=C1N/C=C/c2ccc(c(Br)c2)Oc2cc(cc(Br)c2O)CCNC(=O)/C(=N/O)Cc2cc(Br)c(c(Br)c2)Oc2cc(cc(Br)c2O)C/C1=N\\O"
  ANSWER_LABEL: "y"
- STRUCTURE_SMILES_STRING: "O=C1N/C=C/c2ccc(c(Br)c2)Oc2cc(cc(Br)c2O)CCNC(=O)/C(=N/O)Cc2ccc(c(Br)c2)Oc2cc(cc(Br)c2O)C/C1=N\\O"
  ANSWER_LABEL: "y"
- STRUCTURE_SMILES_STRING: "O=C1NCCc2cc(Br)c(O)c(c2)Oc2c(Br)cc(cc2Br)CCNC(=O)/C(=N/O)Cc2cc(Br)c(O)c(c2)Oc2c(Br)cc(cc2Br)C/C1=N\\O"
  ANSWER_LABEL: "y"
- STRUCTURE_SMILES_STRING: "O=C1CCc2cc(Br)c(c(Br)c2)Oc2cc(ccc2O)CCC(=O)NCCc2cc(Br)c(c(Br)c2)Oc2cc(cc(Br)c2O)CCN1"
  ANSWER_LABEL: "n"
- STRUCTURE_SMILES_STRING: "O=C1NCCc2ccc(c(Br)c2)Oc2cc(ccc2O)CCNC(=O)/C(=N/O)Cc2cc(Br)c(O)c(c2)Oc2c(Br)cc(cc2Br)C/C1=N\\O"
  ANSWER_LABEL: "n"

Sourced from ChEMBL document CHEMBL3217621
